# Tested on: NIH3T3
# Assay Notes: Cytotoxic Profiling of Annotated Libraries Using Quantitative High-Throughput Screening (AID 1296008); note: nearly all actives have a fitted effect of over 60% in size; for max response: % is set by controls: 0 for no effect and ±100 for the full control effect
# Condition Parameters: Five cell lines viability, CellTiter-Glo ATP luminescence, 48-72 h; stronger effect = lower value
Inconclusive results are not listed.
Property: max response (%)
Just the number please, in %, no unit attached.

I am curious: what max response value has been reported for CCC/C=C/c1cc2c(C=O)c(O)c(CC=C(C)C)cc2o1 ? -11.8

CS(=O)(=O)c1ccc(Oc2cc(F)cc(C#N)c2)c2c1[C@H](O)C(F)(F)C2 ? -14.9

Cc1cc2c(N3CCCC3)nc(N3CCCC3)nc2n1C ? -2.11

CCCCC1CCN(CCCN2C(=O)CCc3ccccc32)CC1 ? -7.86

COC(=O)C(Cc1ccc(OCCn2c(=O)sc3cc(C(=O)c4ccccc4)ccc32)cc1)C(=O)OC ? 2.75

* * *

# Tested on: NIH3T3
# Assay Notes: Cytotoxic Profiling of Annotated Libraries Using Quantitative High-Throughput Screening (AID 1296008); note: nearly all actives have a fitted effect of over 60% in size; note: potency is the fitted concentration of half-maximal effect
# Condition Parameters: Five cell lines viability, CellTiter-Glo ATP luminescence, 48-72 h
Results filed as inconclusive are left out. Active and inactive are the calls of the source. Calls follow the shape of the dose curve; as a rule, active = well fitted inhibition curve with a large enough effect; inconclusive = small, poorly fitted or top-dose-only effect; inactive = flat fitted curve, though single readings scatter.
Property: Potency

COc1ccccc1N1CCN(c2ncnc3n[nH]c(Br)c23)CC1
inactive
CCOc1ccc(CCNC(=O)c2cc3sc(Cl)cc3n2C)cc1OCC
inactive
O=C(Nc1ccccc1C(=O)Nc1ccc(CCO)cc1)c1ccc([N+](=O)[O-])cc1
inactive
CNCCCC1(c2ccccc2)OC(C)(C)c2ccccc21 (stereo not given)
inactive

I am curious: what Potency value has been reported for COC(=O)N1CCC(n2ncc3c(N4CCOCC4)nc(-c4ccc(NC(=O)NC5CC5)cc4)nc32)CC1 ? 0.651 µM (active)

* * *

# System: OV90
# Assay Notes: Primary qHTS to identify gynecologic anti-cancer compounds using libraries of approved drugs and bioactive compounds (AID 1345084); note: % is set by controls: 0 for no effect and ±100 for the full control effect; nearly all actives have a fitted effect of over 55% in size
# Condition Parameters: Gynecologic cancer cell panel viability, ATPlite luminescence, 48 h; series mostly up to 57.5 µM
# From the text: National Center for Advancing Translational Sciences [NCATS] Assay Overview: Chemotherapeutic drug responses vary from cancer to cancer and from patient to patient. […] ATPlite is a luminescence based assay reliant on the conversion of a luciferase substrate to light in the presence of ATP. As a cytotoxic compound will suppress growth and decrease the number of cells, the concentration of ATP will decrease, and less light signal will be detected in the well. […]
Records with an inconclusive call do not appear. Calls of active or inactive are those of the source. The call rests on the fitted dose curve; in most records, active means well fitted cell-killing curve with a large enough effect; inconclusive means small, poorly fitted or top-dose-only effect, or effect the other way; inactive means flat fitted curve, though single readings scatter. *1 amine or outer side, *2 acyl side, *3 side chain or, on linkers, in order; H or OH if unused. Where a SMILES comes first, the peptide text is derived from it. Bridges are numbered along the chain shown (N, C = ends). [ ]: non-standard residue; d: D form. The star is where a group is joined. pTerphenylCO(4''-OnC5H11) = CCCCCOc1ccc(-c2ccc(-c3ccc(C(=O)*)cc3)cc2)cc1; Orn(4R-OH,5R-OH) = O=C([C@H](C[C@@H](O)[C@@H](O)N[*:3])N[*:1])[*:2]; hTyr(3S-OH,4S-OH) = N[C@H](C(=O)O)[C@H](O)[C@@H](O)c1ccc(O)cc1; Pro(3S-OH,4S-Me) = C[C@H]1CN[C@H](C(=O)O)[C@H]1O; Hyp = O=C(O)[C@@H]1C[C@@H](O)CN1
Property: outcome

Answered cases to consult:
O=C(Nc1ccccc1)N1CCC(Cc2cnc3ccccc3c2)CC1
inactive
CCCCCOc1ccc(-c2ccc(-c3ccc(C(=O)N[C@H]4C[C@@H](O)[C@@H](O)NC(=O)[C@@H]5[C@@H](O)[C@@H](C)CN5C(=O)[C@H]([C@@H](C)O)NC(=O)[C@H]([C@H](O)[C@@H](O)c5ccc(O)cc5)NC(=O)[C@@H]5C[C@@H](O)CN5C(=O)[C@H]([C@@H](C)O)NC4=O)cc3)cc2)cc1 ({pTerphenylCO(4''-OnC5H11)}-[Orn(4R-OH,5R-OH)]T[Hyp][hTyr(3S-OH,4S-OH)]T[Pro(3S-OH,4S-Me)]; lactam 1-C)
inactive
COCC(=O)NC/C=C/c1ccc2ncnc(Nc3ccc(Oc4ccc(C)nc4)c(C)c3)c2c1
inactive
O=C(Nc1ccc(C(F)(F)F)cn1)N1CCN(c2ncccc2C(F)(F)F)CC1
inactive
CN1CCN(C2=Nc3ccccc3Nc3ccc(OS(=O)(=O)C(F)(F)F)cc32)CC1
inactive

// below: outcome requested for another molecule
I am curious: what outcome value has been reported for OC1(CN2CCC(COc3noc4cccc(O[C@@H]5CCOC5)c34)CC2)CCOCC1 ? inactive
